Origin of values: patent US20100080770A1

- Tested on: HCV replicon in HUH-7 cells
- protocol.summary: HCV replicon assay (FRET, confirmed in the luciferase reporter assay)
- Type: cell-based
- cond: Hepatitis C virus, 96 h, 4 days, class symbols
observable: EC50

# molecule, target.system, EC50
measured = [
    ("C=C[C@@H]1C[C@]1(NC(=O)[C@@H]1C[C@]2(OC)CN1C(=O)[C@H](C(C)(C)C)NC(=O)OCCC/C=C\\c1cc3cc2ccc3cc1OC)C(=O)NS(=O)(=O)C1CC1 [Example 4]", "HCV replicon in HUH-7 cells", "1 to 10 nM"),
    ("C=C[C@@H]1C[C@]1(NC(=O)[C@@H]1C[C@]2(OC)CN1C(=O)[C@H](C(C)(C)C)NC(=O)OCCC(C)(C)CCCc1cc3cc2ccc3cc1OC)C(=O)NS(=O)(=O)C1CC1 [Example 17]", "HCV replicon in HUH-7 cells", "1 to 10 nM"),
    ("C=C[C@@H]1C[C@]1(NC(=O)[C@@H]1C[C@]2(OC)CN1C(=O)[C@H](C(C)(C)C)NC(=O)OCCCCC=Cc1cc3cc2ccc3cc1OC)C(=O)NS(=O)(=O)C1CC1 [Example 7]", "HCV replicon in HUH-7 cells", "1 to 10 nM"),
    ("C=C[C@@H]1C[C@]1(NC(=O)[C@@H]1C[C@]2(OC)CN1C(=O)[C@H](C(C)(C)C)NC(=O)OCC(C)(C)C/C=C\\c1cc3cc2ccc3cc1OC)C(=O)NS(=O)(=O)C1CC1 [Example 8]", "HCV replicon in HUH-7 cells", "1 to 10 nM"),
]

**Query** Checklist item: EC50 tested on HCV replicon in HUH-7 cells, entry COc1cc2ccc3cc2cc1CCCC(C)(C)COC(=O)N[C@@H](C(C)(C)C)C(=O)N1C[C@@]3(OC)C[C@H]1C(=O)N[C@]1(C(=O)NS(=O)(=O)C2CC2)C[C@H]1C(F)F [Example 11] , value?
**Result** 11 to 20 nM
